As shown below, each of these molecules has a reported IC50 value.
# Test system: Human immunodeficiency virus 2
# test-details: Antiviral activity against HIV-2 ROD infected in thymidine kinase-deficient human CEM cells
# Format: functional, organism-based
# experimental-conditions: Human immunodeficiency virus 2, ISOLATE ROD, CCRF-CEM

1) Cc1cn([C@H]2C=C[C@@H](CO)O2)c(=O)[nH]c1=O
≥ 120 µM

Need IC50, item CCCCCCCCCCCCCCCCC(OP(=O)(O)OC[C@@H]1CC[C@H](n2ccc(N)nc2=O)O1)C(=O)O (stereo partly drawn)
> 40.5 µM

Try the molecule `Cc1cn([C@H]2C[C@H](N=[N+]=[N-])[C@@H](CO)O2)c(=O)[nH]c1=O`
> 14.9 µM

Field entry: `Nc1ncnc2c1ncn2[C@H]1C=C[C@@H](CO)O1`
≥ 81.9 µM

Same again, this time with `Nc1ccn([C@H]2CC[C@@H](CO)O2)c(=O)n1`
1.9 µM

---

# Test system: Human immunodeficiency virus 2
# test-details: Antiviral activity against HIV-2 ROD infected in thymidine kinase-deficient human CEM cells
# Format: functional, organism-based
# experimental-conditions: Human immunodeficiency virus 2, ISOLATE ROD, CCRF-CEM
Quick reference for IC50 among some compounds

1) CCCCCCCCCCCCCCCC(CC(=O)O)OP(=O)(O)OC[C@@H]1C=C[C@H](n2cc(C)c(=O)[nH]c2=O)O1 (stereo partly drawn)
> 39.6 µM
2) CCCCCCCCCCCCCCCCC(OP(=O)(O)OC[C@@H]1C=C[C@H](n2cnc3c(N)ncnc32)O1)C(=O)O (stereo partly drawn)
> 39.1 µM

// query IC50 value for entry CCCCCCCCCCCCCCCCC(OP(=O)(O)OC[C@@H]1C=C[C@H](n2cc(C)c(=O)[nH]c2=O)O1)C(=O)O (stereo partly drawn)
> 39.6 µM
